System: substance P contraction, guinea pig tracheal rings
assay.explanation: Relaxation of substance P-induced contraction in guinea pig tracheal rings
Format: cell-based
condition.info: FIG. 2, FIG. 3E-F, FIG. 8
measure: attenuation/relaxation of substance P (exogenous tachykinin) contraction

{"columns": ["molecule", "result"],
 "data": [
  ["CNC1(c2ccccc2Cl)CCCCC1=O (stereo not shown)", "failed to relax"],
  ["CCOC(=O)c1cncn1[C@H](C)c1ccccc1 [etomidate]", "failed to relax"]
]}
